Assay: inhibitors of mutant huntingtin aggregation, primary screen, imaging, exon1htt(103Q)mCFP cells, high-content imaging (AID 483);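 note: compound exposure lasted 3 days before fixation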;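 for nuclei count: percent of the per-plate median nuclei count of sample wells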
Conditions: exon1htt(103Q)mCFP cell line, aggregate imaging, at 2 µM; measured here: cell count, toxicity
READOUT LABEL: nuclei count (%)
Numbers only, in %.

The examples below pair each entry with its known result.
>>> result_number("Cc1cccc(OCC(=O)N(Cc2cccs2)C2CCS(=O)(=O)C2)c1C (stereo not given)")
88.1
>>> result_number("CCOC(=O)c1ccc(N2C(=O)CC(N3CCN(C/C=C/c4ccccc4)CC3)C2=O)cc1 (stereo not given)")
103
>>> result_number("O=C1C2CC=CCC2C(=O)N1c1ccc(Cc2ccncc2)cc1 (stereo not given)")
107
>>> result_number("COCCN(C(=O)CCC(=O)Nc1ccccn1)C(C(=O)NC1CCCC1)c1ccc(OC)cc1 (stereo not given)")
105

Prompt: Which nuclei count reading was recorded for the compound CC(C)CNC(=O)C1CC(=O)OC12CCCCC2 (stereo not given) ?
Response: 96.4

* * *

Target: Voltage-gated potassium channel subunit beta-2 (Rattus norvegicus)
Experiment: KvBeta positive modulators, primary screen, biochemical, NADPH fluorescence (AID 623);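 note: fluorescence intensity change per second fitted from 20 to 320 s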
Settings: Recombinant KvBeta, NADPH fluorescence decrease slope, 10 min; at 10 µM; stronger effect = lower value
Please go through the items and note down their NADPH fluorescence slope.
Give bare numbers.

Answered cases to consult:
>>> result_number("O=C1c2ccccc2C(=O)N1CNc1ccccc1")
"-1.7e-05"
>>> result_number("O=C(C1CCC(N2C(=O)C3CC=CCC3C2=O)CC1)N1CCCCC1 (stereo unspecified)")
"-5.2e-05"
>>> result_number("COc1ccc(C)cc1S(=O)(=O)N(CC(=O)O)c1ccccc1")
"7.5e-06"
>>> result_number("O=C(COc1ccc(=O)n(-c2ccccc2)n1)Nc1ccccc1")
"7.6e-06"
>>> result_number("Cc1ccsc1C(C(=O)NC1CCCCC1)N(C(=O)Cc1cccs1)C1CC1 (stereo unspecified)")
"-4.8e-05"

Prompt: Given Cc1ccc(C(=O)NCC(C)(C)O)cc1 , state its recorded NADPH fluorescence slope.
Response: -8.2e-05

* * *

Experiment: inhibitors of TNFa-induced NFkB p65 translocation, primary screen, imaging, HUVEC, MLSMR starter and 10KST1 sets (AID 438);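 note: compound added about 3h40 before a 20 min TNFalpha stimulation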;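 for inhibition: signal is the nuclear over cytoplasmic p65 intensity ratio per well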
Conditions: HUVEC TNFa-induced p65 nuclear translocation; at 2 µM, stronger effect = higher value, 0% TNFa-plus-vehicle, 100% no-TNFa wells
Kindly state inhibition for each of the entries shown.
Numbers only, in %.

>>> result_number("COc1ccccc1CNS(=O)(=O)c1ccc(NC(C)=O)cc1")
8.1

I need inhibition for every entry listed below, if you could help.
1. COc1ccc(N2C(=O)C3C(C2=O)C2C=CC3C23CC3)c(OC)c1 (configuration not stated)
2. CC1CCc2c(sc(N)c2C(N)=O)C1 (configuration not stated)

Response:
[-4.2, -4.4]

State the recorded inhibition for every item in the following list.
1. O=C1NC2=C(C(=O)CCC2)C(c2ccc3ncccc3c2)N1 (configuration not stated)
2. CCC(C)NC(=O)C1c2cc(OC)c(OC)cc2C(=O)N(C)C1c1ccc(OC)cc1 (configuration not stated)
3. CCCS(=O)(=O)Nc1c(C(=O)O)[nH]c2ccccc12
4. Clc1ccc(C2Nc3ccccc3-n3cccc32)cc1 (configuration not stated)

Response:
1.5
-0.3
-11.9
-1.6

Okay, here is my list. What is inhibition for each of these?
1. Cc1cc(=O)oc(C)c1C(=O)NC1CC(C)(C)NC(C)(C)C1
2. COCCNc1nc2c(c(=O)n(C)c(=O)n2C)n1Cc1cccc(C(F)(F)F)c1
3. COc1cc(=O)[nH]c(=O)n1CC(=O)c1ccccc1
4. C=CCN=C(NC#N)SCCc1ccccc1
5. Cc1nc2ccccc2c2c1C(=O)N(CCC1=CCCCC1)C2=O

Response:
-8.3
3
-7.7
-16.1
1.6

* * *

Assay: inhibitors of mutant huntingtin aggregation, primary screen, imaging, exon1htt(103Q)mCFP cells, high-content imaging (AID 483);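 note: compound exposure lasted 3 days before fixation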
Details: exon1htt(103Q)mCFP cell line, aggregate imaging, at 2 µM; stronger effect = higher value
READOUT LABEL: inhibition of aggregation (%)
Give bare numbers, in %.

>>> result_number("O=C(O)CCn1c(=O)c2ccccc2c2ccccc2c1=O")
-13.6
>>> result_number("O=C(CSc1nnc(C2CC2)n1Cc1ccccc1)c1ccc(S(=O)(=O)N2CCOCC2)cc1")
1.1
>>> result_number("COc1cc(OC)cc(C(=O)N2c3ccc(F)cc3CCC2C)c1 (centres undefined)")
19

List reported inhibition of aggregation for each of these compounds:
1. Cc1nnc(NC(=O)CSc2nc3c(c(=O)n2C)SC(C)C3)s1 (centres undefined)
2. CC1=C(C(=O)OC2CCCCCC2)C(c2ccc(C)o2)C2=C(CCCC2=O)N1 (centres undefined)
3. Cc1ccc(S(=O)(=O)NC(C)C(=O)Nc2ccc(C(N)=O)cc2)cc1 (centres undefined)
4. c1coc(CN(Cc2cccs2)Cc2nnnn2C2CCCCC2)c1
5. CCC(C)(C)n1nnnc1C(c1cc2cc(OC)ccc2[nH]c1=O)N1CCc2ccccc21 (centres undefined)

Response:
1. -22.2
2. -10
3. 1.1
4. 26.1
5. 9.8

Batch request: inhibition of aggregation for each of the following compounds.
1. CCC(C)NC(=O)C1c2cc(OC)c(OC)cc2C(=O)N(C)C1c1ccc(OC)cc1 (centres undefined)
2. O=C(CNC1CCCCCC1)Nc1ccc(S(=O)(=O)NC2CC2)cc1

Response:
7.3
3.3

* * *

Experiment: inhibitors of E-selectin induction by TNFa, primary screen, imaging, HUVEC, immunofluorescence, MLSMR starter and 10KST1 sets (AID 487);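 note: 100% = median nuclei count of all wells on the same plate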
Conditions: HUVEC TNFalpha-induced E-selectin immunofluorescence imaging, at 2 µM; measured here: cell number, toxicity
READOUT LABEL: nuclei count (%)
Give bare numbers, in %.

Before answering, review these 4 worked examples.
>>> result_number("O=C(CSc1nnc(CNC(=O)c2cccs2)o1)NCCc1ccccc1")
115
>>> result_number("O=C(CN1C(=O)c2ccccc2C1=O)OCN1C(=O)c2ccccc2C1=O")
125
>>> result_number("COc1ccc(OCC(=O)Nc2cccc3ncccc23)cc1")
95.6
>>> result_number("O=C(Nc1cccc(O)c1)c1ccccc1")
102

# batch: return nuclei count for each of the 6 compounds below
1. Cc1cccc2cc(CN(CCCO)C(=O)Nc3ccc(Cl)cc3)c(=O)[nH]c12
2. Cc1nn(-c2ccccc2)c(C)c1/C=N/O
3. CCOC(=O)CSc1nnc(Cn2c(=O)sc3ccccc32)n1C
4. O=C(CN(Cc1ccco1)C(=O)CNS(=O)(=O)c1ccc(F)cc1)NCCc1ccccc1
5. Cc1cc2c(c(=O)n1Cc1ccccn1)C(c1ccc3c(c1)OCO3)C(C#N)=C(N)O2 (stereo unspecified)
6. Cc1nc(N2CCN(C(=O)c3ccc(Cl)cc3)CC2)c(C#N)c2c1COC(C)(C)C2

Response:
[156, 94.2, 114, 112, 183, 95.8]

Prompt: // returns reported nuclei count for input COc1ccc(S(=O)(=O)N2CCCC2C(=O)Nc2ccc(C)cc2)cc1 (stereo unspecified)
Response: 73.3

* * *

Assay: inhibitors of TNFa-induced NFkB p65 translocation, primary screen, imaging, HUVEC, MLSMR starter and 10KST1 sets (AID 438);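 note: compound added about 3h40 before a 20 min TNFalpha stimulation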
Settings: HUVEC TNFa-induced p65 nuclear translocation; measured here: nuclei count (cytotoxicity indicator), at 2.08 µM
Values of cell count greater than or equal to 600 map to Fulfilled; values below map to Not fulfilled.

>>> group("Cc1ccc(-n2cnnn2)c2cccnc12")
"Fulfilled"

Prompt: State whether the measured cell count reaches 600, counting equality as reaching it, for CC(C)=CCC(C)(C)CNC(=O)NC1CCCCC1
Response: Not fulfilled

Prompt: Subsequent entry: Cc1ccc(-c2noc(CCC(=O)NCC3CCN(Cc4cccc(C)c4)CC3)n2)cc1
Response: Not fulfilled

Prompt: Try the molecule CCN(CC)Cc1cc(C(C)=O)ccc1OCC(C)C
Response: Fulfilled

Prompt: Please do the same for CCCNc1ncnc2c1cnn2-c1ccc(OC)cc1 as well.
Response: Fulfilled

Prompt: Thanks! And CCOC(=O)c1sc(NC(=O)CSc2nnc(-c3ccc(OC)cc3)n2CCOC)nc1C ?
Response: Fulfilled

Prompt: Param item: COc1ccc(C2N(C(=O)c3ccccc3)CCN2C(=O)c2ccccc2)cc1
Response: Not fulfilled

* * *

Biological target: Alpha-2C adrenergic receptor (Homo sapiens)
Assay: modulators of alpha2C/GIRK thallium flux, primary screen, cell-based, HEK293 alpha2C/GIRK1/2 (AID 624);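 note: slope of fluorescence ratio to pre-addition baseline per second over 15 to 24 s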
Details: thallium flux BTC fluorescence, at 10 µM, actives lie on both sides
READOUT LABEL: slope
Numbers only.

>>> result_number("CC12CN3CC(C)(CN(C1)C3c1cc(Br)ccc1O)C2=O (stereo unspecified)")
0.00402

Hi there! I need slope for each item below, if you can.
1. CCc1noc(C)c1C(=O)NCCc1ccc(OC)c(OC)c1
2. CCS(=O)(=O)N1CCCC(c2nc(-c3cccc(OC)c3)no2)C1 (stereo unspecified)
3. CCOc1ccc(NS(=O)(=O)c2ccc(OCC(=O)N3CCCC3)cc2)cc1
4. Cc1cc(C)n(-c2cc(N3CCOCC3)ncn2)n1
5. CCOC(=O)c1cc2n(n1)C(C(F)(F)C(F)(F)F)CC(C)N2 (stereo unspecified)
6. CCn1c(C(=O)N2CCC(C(=O)N3CCN(c4ccccn4)CC3)CC2)cc2sccc21
7. Cc1csc2ncc(C(=O)N3CCc4ccccc43)c(=O)n12

Response:
1: 0.00531; 2: 0.00638; 3: 0.00531; 4: 0.00484; 5: 0.00828; 6: 0.00642; 7: 0.00571

Would you mind listing slope for each of the following molecules?
1. COc1cccc(C2CC(=O)Nc3c2c(=O)n(C)c(=O)n3C)c1OC (stereo unspecified)
2. CCc1ccccc1NC(=O)CCc1nc(-c2ccc(C)cc2)no1
3. CCc1c(C(=O)NCCc2ccc(OC)c(OC)c2)[nH]c(C)c1C(C)=O

Response:
1. 0.00679
2. 0.00374
3. 0.00669
